Study system: M1 type muscarinic cholinergic receptor (Rattus norvegicus, UniProt P08482)
Sequence (P08482 1-460): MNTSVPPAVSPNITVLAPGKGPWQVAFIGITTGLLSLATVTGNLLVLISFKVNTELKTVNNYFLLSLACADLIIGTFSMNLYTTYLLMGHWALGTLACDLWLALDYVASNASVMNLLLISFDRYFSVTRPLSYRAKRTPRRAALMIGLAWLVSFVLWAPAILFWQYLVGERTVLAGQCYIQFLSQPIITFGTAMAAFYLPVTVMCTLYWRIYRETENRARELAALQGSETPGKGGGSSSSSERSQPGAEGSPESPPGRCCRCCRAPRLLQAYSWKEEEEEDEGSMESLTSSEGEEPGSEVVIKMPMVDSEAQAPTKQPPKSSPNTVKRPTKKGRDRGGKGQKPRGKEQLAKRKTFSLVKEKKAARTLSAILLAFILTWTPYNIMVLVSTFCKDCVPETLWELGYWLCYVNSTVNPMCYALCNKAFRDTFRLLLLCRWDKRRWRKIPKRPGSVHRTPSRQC
Parameter measured: pIC50
FYI, pIC50 means -log10 of a concentration in mol per litre.

// returns pIC50 for O=C1N(c2ccc(F)cc2)CCN1C1CCCN(Cc2ccccc2)C1 (racemic) with M1 type muscarinic cholinergic receptor (Rattus norvegicus, UniProt P08482); value = 7.10

// returns pIC50 for "O=C1N(c2ccc(F)cc2)CCN1[C@H]1CCCN(Cc2ccccc2)C1" with M1 type muscarinic cholinergic receptor (Rattus norvegicus, UniProt P08482); value = 5.43

// returns pIC50 for "O=C1N(c2ccc(F)cc2)CCN1[C@@H]1CCCN(Cc2ccccc2)C1" with M1 type muscarinic cholinergic receptor (Rattus norvegicus, UniProt P08482); value = 7.52
